target: Androgen Receptor (AR) (Homo sapiens, UniProt P10275, T878A); construct: cell based immuno-fluorescence assay using the LNCaP prostate epithelial cell line; endogenous in cells; host or cells: LNCaP clone FGC (ATCC CRL-1740); test: LNCaP Androgen Receptor Down-regulation Cell Assay (immunofluorescence end point); assay type: cell-based; conditions: LNCaP prostate carcinoma cells, compound incubation 20-22 hours, 50% reduction of the AR signal; read-out: Androgen Receptor Down-regulation Assay (a) IC50/μM
Sequence (P10275 whole entry T878A): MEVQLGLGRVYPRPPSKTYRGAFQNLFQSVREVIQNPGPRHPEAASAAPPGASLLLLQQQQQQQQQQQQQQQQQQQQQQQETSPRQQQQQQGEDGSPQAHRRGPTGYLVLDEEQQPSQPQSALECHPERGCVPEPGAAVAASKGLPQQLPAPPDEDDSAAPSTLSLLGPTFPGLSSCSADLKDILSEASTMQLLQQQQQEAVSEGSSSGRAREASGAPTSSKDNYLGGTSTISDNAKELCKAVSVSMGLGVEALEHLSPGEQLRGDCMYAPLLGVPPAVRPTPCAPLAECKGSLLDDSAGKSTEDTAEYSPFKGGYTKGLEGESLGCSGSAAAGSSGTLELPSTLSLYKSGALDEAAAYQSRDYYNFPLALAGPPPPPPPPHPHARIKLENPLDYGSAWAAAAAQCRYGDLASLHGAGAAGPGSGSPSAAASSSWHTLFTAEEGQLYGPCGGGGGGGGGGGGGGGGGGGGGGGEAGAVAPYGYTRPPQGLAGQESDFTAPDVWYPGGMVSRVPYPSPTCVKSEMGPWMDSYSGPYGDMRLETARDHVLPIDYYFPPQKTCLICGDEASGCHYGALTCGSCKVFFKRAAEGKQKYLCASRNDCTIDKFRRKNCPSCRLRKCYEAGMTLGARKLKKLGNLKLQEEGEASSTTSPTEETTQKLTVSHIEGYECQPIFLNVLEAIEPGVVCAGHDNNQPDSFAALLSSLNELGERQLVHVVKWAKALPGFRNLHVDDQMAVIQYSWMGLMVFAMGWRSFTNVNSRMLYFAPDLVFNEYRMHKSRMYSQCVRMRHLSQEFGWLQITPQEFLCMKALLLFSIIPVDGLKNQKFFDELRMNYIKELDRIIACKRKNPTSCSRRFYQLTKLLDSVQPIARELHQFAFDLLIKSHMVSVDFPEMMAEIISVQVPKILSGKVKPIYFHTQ
For each record, check the reported DC50: if it is below 3 µM write Fulfilled, else write Not fulfilled.

FC(F)(F)c1nnc2ccc(N3CCN(Cc4ccccc4Cl)CC3)nn12 = Fulfilled
C[C@@H]1CN(c2ccc3nnc(C(F)(F)F)n3n2)[C@@H](C)CN1Cc1cccnc1 = Not fulfilled
C[C@H](c1ccc(C#N)cc1)N1CCN(c2ccc3nnc(C(F)F)n3n2)CC1 = Not fulfilled
Fc1cnccc1C1CCN(c2ccc3nnc(C(F)(F)F)n3n2)CC1 = Fulfilled
N#Cc1ccc(CN2CCN(c3ccc4nnc(C(F)(F)F)n4c3)CC2)cc1 = Not fulfilled
COc1ccc(CN2CCCN(c3ccc4nnc(C(F)(F)F)n4n3)CC2)cc1 = Fulfilled
COC(=O)c1ccccc1C1CCN(c2ccc3nnc(C(F)(F)F)n3n2)C1 (stereo not drawn) = Fulfilled
N#Cc1ccc(CN2CCN(c3ccc4nnc(C(F)(F)F)n4n3)CC2)c(F)c1 = Fulfilled

# ---- query compound ----
Below 3 µM on DC50? Entry `N#Cc1cccc(CN2[C@@H]3CC[C@H]2CN(c2ccc4nnc(C(F)(F)F)n4n2)C3)c1`
Fulfilled

----------
Entries and their DC50
molecular target: Androgen Receptor (AR) (Homo sapiens, UniProt P10275, T878A); construct: cell based immuno-fluorescence assay using the LNCaP prostate epithelial cell line; endogenous in cells; host or cells: LNCaP clone FGC (ATCC CRL-1740); assay: LNCaP Androgen Receptor Down-regulation Cell Assay (immunofluorescence end point); type: cell-based; conditions: LNCaP prostate carcinoma cells, compound incubation 20-22 hours, 50% reduction of the AR signal; read-out: Androgen Receptor Down-regulation Assay (a) IC50/μM
# number only, unit µM dropped from output

Worked cases, answers included:
O=[N+]([O-])c1ccc(N2CCN(c3ccc4nnc(C(F)(F)F)n4n3)CC2)cc1 = 0.27
Cc1cccc(C)c1N1CCN(c2ccc3nnc(C(F)(F)Cl)n3n2)CC1 = 0.69
O=C(NCCN1CCCC1)c1cccc(C2CCN(c3ccc4nnc(C(F)(F)F)n4n3)CC2)c1 = 1.5

For the compound shown here, `FC(F)c1nnc2ccc(N3CCN(Cc4csc5ccccc45)CC3)nn12` , give the reported DC50.
0.95

For the compound shown here, `N#Cc1cccc(-c2nc(C3CCN(c4ccc5nnc(C(F)(F)F)n5n4)CC3)no2)c1` , give the reported DC50.
5.8

For the compound shown here, `CNC(=O)c1cccc(C2CCN(c3ccc4nnc(C(F)(F)F)n4n3)CC2)c1` , give the reported DC50.
2.3

For the compound shown here, `Cn1nccc1CCOc1ccc(C2CCN(c3ccc4nnc(C(F)(F)F)n4n3)CC2)cc1` , give the reported DC50.
0.24

For the compound shown here, `Fc1ccc(F)c(CN2CCN(c3ccc4nnc(C(F)(F)F)n4n3)CC2)c1` , give the reported DC50.
2.4

For the compound shown here, `O=C1OCc2ccccc2N1C1CCN(c2ccc3nnc(C(F)(F)F)n3n2)CC1` , give the reported DC50.
5

For the compound shown here, `CCCc1ccc(CN2CCN(c3ccc4nnc(C(F)(F)F)n4n3)CC2)cc1` , give the reported DC50.
3

For the compound shown here, `Fc1ccc(-c2nc(N3CCN(c4ccc5nnc(C(F)(F)F)n5n4)CC3)no2)cc1` , give the reported DC50.
6.1

For the compound shown here, `FC(F)c1nnc2ccc(N3CCCN(Cc4ccccc4)CC3)nn12` , give the reported DC50.
7.5

For the compound shown here, `FC(F)C(F)(F)c1nnc2ccc(N3CCN(C(c4ccccc4)c4ccccc4)CC3)nn12` , give the reported DC50.
3.4

For the compound shown here, Fc1cncc(CN2CC3CN(c4ccc5nnc(C(F)(F)F)n5n4)CC3C2)c1 (stereo not shown) , give the reported DC50.
2.1

For the compound shown here, `Cc1ccccc1N1CCN(c2ccc3nnc(C(F)(F)F)n3n2)CC1` , give the reported DC50.
1.6

For the compound shown here, `FC(F)(F)c1ccc(O[C@@H]2CCN(c3ccc4nnc(C(F)(F)F)n4n3)C2)cc1` , give the reported DC50.
4.1

For the compound shown here, `Fc1cccc(-c2nc(C3CCN(c4ccc5nnc(C(F)(F)F)n5n4)CC3)no2)c1` , give the reported DC50.
1.1

For the compound shown here, `CS(=O)(=O)Oc1ccc(CN2CCN(c3ccc4nnc(C(F)(F)F)n4n3)CC2)cc1` , give the reported DC50.
6.7

For the compound shown here, `C[C@H]1CN(c2ccc3nnc(C(F)(F)F)n3n2)CCN1Cc1ccc(C#N)cc1` , give the reported DC50.
0.96

Measured values drawn from patent US8003649B2 for this set.
